# assayed_target: UniProtKB P08235
# assay_remarks: GAL4-hMR-LBD luciferase reporter assay in HEK293 cells with 1 nM aldosterone (Test Example 1);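 as to Imax: 0% is DMSO-only control and 100% is 1 nM aldosterone alone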
# measurement_setup: concentration showing Imax/2; HEK293, GAL4-hMR-LBD, 1 nM aldosterone, overnight; read-out: ICmax50
For each record, write down the corresponding pIC50.
One number for each entry, as −log10 of the molar value.

>>> reading("Cc1cc(NC(=O)c2cc(C[C@H](C)O)n(-c3ccc(F)cc3OC(F)F)c2C)ccc1S(C)(=O)=O (single isomer, unassigned) [Example 22 - isomer A]")
8.21

Lab note: next molecule to report on.
Data request: Could you tell me which pIC50 is on file for Cc1c(C(=O)Nc2ccc(S(N)(=O)=O)c(Cl)c2)cc(C[C@H](C)O)n1-c1ccc(F)cc1C(F)(F)F (single isomer, unassigned) [Example 12 - isomer A] ?
Data returned: 8.51

----------
Record form. Attribute: Emax. Fill in for each entry.
# assayed_target: human mineralocorticoid receptor (hMR) (Homo sapiens)
# Construct: expressed in transfected cells; host or cells: HEK293
# Sequence (P08235 726-964 limits assumed): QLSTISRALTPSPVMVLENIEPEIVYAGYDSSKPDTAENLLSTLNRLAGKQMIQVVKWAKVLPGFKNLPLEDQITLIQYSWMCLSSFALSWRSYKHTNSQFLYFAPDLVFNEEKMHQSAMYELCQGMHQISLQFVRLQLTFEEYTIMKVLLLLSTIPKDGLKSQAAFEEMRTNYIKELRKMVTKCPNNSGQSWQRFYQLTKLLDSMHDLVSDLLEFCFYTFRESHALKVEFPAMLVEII
# assay_remarks: GAL4-hMR-LBD luciferase reporter assay in HEK293 cells with 1 nM aldosterone (Test Example 1);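 as to Imax: 0% is DMSO-only control and 100% is 1 nM aldosterone alone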
# Type: cell-based
# measurement_setup: HEK293; read-out: Imax
Numbers only, in %.

Some molecules with recorded Emax:
>>> reading("Cc1c(C(=O)Nc2ccc(S(C)(=O)=O)cc2)cc(C[C@H](C)O)n1-c1ccc(F)cc1OC(F)F [Example 9]")
114
>>> reading("Cc1c(C(=O)Nc2ccc(S(C)(=O)=O)cc2)cc(C[C@H](C)O)n1-c1ccc(Cl)cc1-c1ccc(F)cc1 (single isomer, unassigned) [Example 50 - isomer B]")
104
>>> reading("CCc1c(C(=O)Nc2ccc(S(C)(=O)=O)cc2)cc(C[C@H](C)O)n1-c1ccc(F)cc1Cl [Example 44]")
111
>>> reading("Cc1c(C(=O)Nc2ccc(S(C)(=O)=O)cc2)cc(C[C@H](C)O)n1-c1ccc(Cl)cc1Cl (single isomer, unassigned) [Example 43 - isomer A]")
123
>>> reading("Cc1c(C(=O)Nc2ccc(S(C)(=O)=O)cc2)cc(C[C@H](C)O)n1-c1ccc(F)cc1C(F)(F)F [Example 5]")
125

Each molecule below has a recorded value; state its Emax.
1. Cc1c(C(=O)Nc2ccc(S(C)(=O)=O)cc2)cc(C[C@H](C)O)n1-c1ccc(Cl)cc1OC(F)(F)F [Example 42]
2. Cc1c(C(=O)Nc2ccc(S(C)(=O)=O)cc2)cc(C[C@H](C)O)n1-c1ccc(F)cc1Cl (single isomer, unassigned) [Example 40 - isomer A]
3. Cc1cc(Cl)ccc1-n1c(CCF)cc(C(=O)Nc2ccc(S(C)(=O)=O)cc2)c1C [Example 51]

Data returned:
[110, 91, 115]

----------
# assayed_target: human mineralocorticoid receptor (hMR) (Homo sapiens)
# Construct: expressed in transfected cells; host or cells: HEK293
# assay_remarks: GAL4-hMR-LBD luciferase reporter assay in HEK293 cells with 1 nM aldosterone (Test Example 1);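 as to Imax: 0% is DMSO-only control and 100% is 1 nM aldosterone alone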
# Assay type: cell-based
# measurement_setup: HEK293; read-out: Imax
Please provide measured Emax for the entries that follow.
Give bare numbers, in %.

Reference set (2 entries):
>>> reading("Cc1c(C(=O)Nc2ccc(S(C)(=O)=O)cc2)cc(CCF)n1-c1ccc(F)cc1OC(F)F (single isomer, unassigned) [Example 54 - isomer A]")
99
>>> reading("Cc1c(C(=O)Nc2ccc(S(C)(=O)=O)cc2)cc(CCO)n1-c1ccc(Cl)cc1C(F)(F)F [Example 1]")
110

Data request: Fill in the recorded Emax for this molecule, with human mineralocorticoid receptor (hMR) (Homo sapiens) as test system: CCc1c(C(=O)Nc2ccc(S(C)(=O)=O)cc2)cc(C[C@H](C)O)n1-c1ccc(F)cc1Cl (single isomer, unassigned) [Example 44 - isomer B]
Data returned: 98

----------
Give measured IC50 for each item. Keep answers brief.
# assayed_target: human mineralocorticoid receptor (hMR) (Homo sapiens)
# assay_remarks: GAL4-hMR-LBD luciferase reporter assay in HEK293 cells with 1 nM aldosterone (Test Example 1);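 as to Imax: 0% is DMSO-only control and 100% is 1 nM aldosterone alone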
# measurement_setup: concentration showing Imax/2; HEK293, GAL4-hMR-LBD, 1 nM aldosterone, overnight; read-out: ICmax50

Observe how each entry below is paired with its result.
>>> reading("Cc1c(C(=O)Nc2ccc(S(C)(=O)=O)cc2)cc(CCO)n1-c1ccc(F)cc1Cl [Example 3]")
"30 nM"
>>> reading("Cc1c(C(=O)Nc2ccc(S(C)(=O)=O)cc2)cc(C[C@H](C)O)n1-c1ccc(Cl)cc1OC(F)(F)F (single isomer, unassigned) [Example 42 - isomer A]")
"> 1000 nM"

Data request: Requested read-out: IC50. Entry: Cc1c(C(=O)Nc2ccc(S(C)(=O)=O)cc2)cc(C[C@H](C)O)n1-c1ccc(F)cc1OC(F)F (single isomer, unassigned) [Example 9 - isomer B]
Data returned: > 1000 nM

----------
What Cmax was measured for each of the following?
# assay_remarks: Plasma concentration after intragastric administration to cynomolgus monkey (Test Example 2)
# Format: in vivo
# measurement_setup: po; male cynomolgus monkey, 3 mg/kg intragastric in 0.5% MC, plasma, LC-MS/MS; read-out: Cmax, maximum concentration
One number for each entry, in ng/mL.

# count of solved cases: 3
>>> reading("Cc1c(C(=O)Nc2ccc(S(C)(=O)=O)cc2)cc(C[C@H](C)O)n1-c1ccc(Cl)cc1OC(F)F (single isomer, unassigned) [Example 11 - isomer A]")
1600
>>> reading("Cc1c(C(=O)Nc2ccc(S(C)(=O)=O)cc2)cc(C[C@H](C)O)n1-c1ccc(F)cc1Cl (single isomer, unassigned) [Example 40 - isomer A]")
1300
>>> reading("Cc1c(C(=O)Nc2ccc(S(C)(=O)=O)cc2)cc(C[C@H](C)O)n1-c1ccc(F)cc1OC(F)F (single isomer, unassigned) [Example 9 - isomer A]")
2350

Lab note: each compound below needs its Cmax filled in.
1. Cc1c(C(=O)Nc2ccc(S(C)(=O)=O)cc2)cc(CCF)n1-c1ccc(F)cc1OC(F)F (single isomer, unassigned) [Example 54 - isomer A]
2. CCc1c(C(=O)Nc2ccc(S(C)(=O)=O)cc2)cc(C[C@H](C)O)n1-c1ccc(F)cc1Cl (single isomer, unassigned) [Example 44 - isomer B]

Data returned:
970
940

----------
# assayed_target: human mineralocorticoid receptor (hMR) (Homo sapiens)
# Construct: expressed in transfected cells; host or cells: HEK293
# assay_remarks: GAL4-hMR-LBD luciferase reporter assay in HEK293 cells with 1 nM aldosterone (Test Example 1);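 as to Imax: 0% is DMSO-only control and 100% is 1 nM aldosterone alone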
# Assay type: cell-based
# measurement_setup: HEK293; read-out: Imax
metric: Emax (%)
Numbers only, in %.

>>> reading("Cc1c(C(=O)Nc2ccc(S(C)(=O)=O)cc2)cc(C[C@H](C)O)n1-c1ccc(F)cc1OC(F)(F)F [Example 16]")
94
>>> reading("Cc1c(C(=O)Nc2ccc(S(C)(=O)=O)cc2)cc(CCO)n1-c1ccc(Cl)cc1C(F)(F)F (single isomer, unassigned) [Example 1 - isomer A]")
87

From here, focus on the item given below.
Data request: Quick one: Emax for Cc1cc(Cl)ccc1-n1c(CCF)cc(C(=O)Nc2ccc(S(C)(=O)=O)cc2)c1C (single isomer, unassigned) [Example 51 - isomer A] ?
Data returned: 124

----------
I'd appreciate it if you could supply Cmax values for the items below.
# assay_remarks: Plasma concentration after intragastric administration to cynomolgus monkey (Test Example 2)
# Assay type: in vivo
# measurement_setup: po; male cynomolgus monkey, 3 mg/kg intragastric in 0.5% MC, plasma, LC-MS/MS; read-out: Cmax, maximum concentration
One number for each entry, in ng/mL.

Please review the following examples before continuing.
>>> reading("Cc1c(C(=O)Nc2ccc(S(C)(=O)=O)cc2)cc(C[C@H](C)O)n1-c1ccc(F)cc1C(F)(F)F (single isomer, unassigned) [Example 5 - isomer A]")
1600
>>> reading("Cc1cc(C(=O)Nc2ccc(S(C)(=O)=O)cc2)c(C)n1-c1ccc(F)cc1C(F)(F)F [Reference compound B, reference compound]")
10

Take each entry in turn and give its Cmax.
1. Cc1c(C(=O)Nc2ccc(S(C)(=O)=O)cc2)cc(C[C@H](C)O)n1-c1ccc(Cl)cc1OC(F)(F)F (single isomer, unassigned) [Example 42 - isomer B]
2. Cc1c(C(=O)Nc2ccc(S(C)(=O)=O)cc2)cc(CCO)n1-c1ccc(F)cc1C(F)(F)F [Example 62]

Data returned:
1. 1660
2. 660

----------
# assay_remarks: Plasma concentration after intragastric administration to cynomolgus monkey (Test Example 2)
# Type: in vivo
# measurement_setup: male cynomolgus monkey, 3 mg/kg intragastric in 0.5% MC, plasma, LC-MS/MS, noncompartment model
metric: AUC, area under the plasma concentration versus time curve (ng·h/mL)
One number for each entry, in ng·h/mL.

>>> reading("Cc1c(C(=O)Nc2ccc(S(C)(=O)=O)cc2)cc(C[C@H](C)O)n1-c1ccc(F)cc1Cl (single isomer, unassigned) [Example 40 - isomer A]")
15110

Your task in this section: give AUC, area under the plasma concentration versus time curve for each listed record.
1. Cc1cc(Cl)ccc1-n1c(CCF)cc(C(=O)Nc2ccc(S(C)(=O)=O)cc2)c1C (single isomer, unassigned) [Example 51 - isomer A]
2. Cc1cc(C(=O)Nc2ccc(S(C)(=O)=O)cc2)c(C)n1-c1ccc(F)cc1C(F)(F)F [Reference compound B, reference compound]
3. Cc1c(C(=O)Nc2ccc(S(C)(=O)=O)cc2)cc(C[C@H](C)O)n1-c1ccc(Cl)cc1C(F)(F)F (single isomer, unassigned) [Example 6 - isomer A]

Data returned:
[10940, 170, 30280]
